tested on: Caco-2 cells; assay: Caco-2 membrane permeability, improved method as used in the following Examples (96-well, 20 to 24 h preincubation); format: in vitro ADME; conditions: human, Caco-2, 180 min
Positions of bridges follow the written chain, without caps; N, C: chain ends. Non-standard residues stand in square brackets, D forms with d. Residues, ends and D or L forms follow the SMILES beside them. *: point of attachment. hPhe(4-Cl) = N[C@@H](CCc1ccc(Cl)cc1)C(=O)O; NMeF = CN[C@@H](Cc1ccccc1)C(=O)O; NMeL = CN[C@@H](CC(C)C)C(=O)O; NMeV = CN[C@H](C(=O)O)C(C)C; NMeA = CN[C@@H](C)C(=O)O; Piperidide = C1CCN(*)CC1; Sar = CNCC(=O)O; tBu = CC(C)(C)*; CHF2 = FC(F)*
Measurement label: Caco-2 (cm/s)
Give the value in cm/s but do not write cm/s after it.

molecule="CC(C)C[C@H]1C(=O)N[C@H](C(=O)N2CCCCC2)CC(=O)N(C)[C@@H](C)C(=O)N[C@@H](CCc2ccc(Cl)cc2)C(=O)N(C)[C@@H](CC(C)C)C(=O)N(C)[C@@H](CC(C)C)C(=O)N[C@@H](C)C(=O)N(C)[C@@H](Cc2ccccc2)C(=O)N(C)[C@@H](C(C)C)C(=O)N[C@@H]([C@@H](C)O)C(=O)N(C)CC(=O)N1C [pd361] ([NMeA][hPhe(4-Cl)][NMeL][NMeL]A[NMeF][NMeV]T[Sar][NMeL]D-Piperidide; lactam N-11)" measurement_label=Caco-2 recorded_value=1.1e-06

Ask: Hello, please tell me recorded Caco-2 for this one: CC(C)C[C@H]1C(=O)N[C@@H](COC(C)(C)C)C(=O)N(C)[C@@H](Cc2ccccc2)C(=O)N(C)[C@@H](CC(C)C)C(=O)N[C@H](C(=O)N2CCCCC2)CC(=O)N[C@H](C(C)C)C(=O)N(C)[C@@H](C(C)C)C(=O)N[C@@H](Cc2ccc(OC(F)F)cc2)C(=O)N(C)[C@@H](CC(C)C)C(=O)N[C@@H]([C@@H](C)O)C(=O)N(C)CC(=O)N1C [pd476] ([dV][NMeV]Y(CHF2)[NMeL]T[Sar][NMeL]S(tBu)[NMeF][NMeL]D-Piperidide; lactam N-11)
Result: 1.1e-06

====

Listing: Papp A→B at 180 min of selected molecules
assay: Caco-2 membrane permeability, improved method as used in the following Examples (96-well, 20 to 24 h preincubation); format: in vitro ADME; settings: human, Caco-2, Caco-2 (cm/sec)
Positions of bridges follow the written chain, without caps; N, C: chain ends. Non-standard residues stand in square brackets, D forms with d. Residues, ends and D or L forms follow the SMILES beside them. *: point of attachment. Phe(4-CF3) = N[C@@H](Cc1ccc(C(F)(F)F)cc1)C(=O)O; NMeF = CN[C@@H](Cc1ccccc1)C(=O)O; NMeD = CN[C@@H](CC(=O)O)C(=O)O; NMeL = CN[C@@H](CC(C)C)C(=O)O; Piperidide = C1CCN(*)CC1; Sar = CNCC(=O)O
Just the number in ×10⁻⁶ cm/s, nothing appended.

molecule="CC(C)C[C@@H]1NC(=O)[C@H](Cc2ccccc2)N(C)C(=O)[C@@H](C(C)C)NC(=O)C[C@@H](C(=O)N2CCCCC2)NC(=O)[C@H](Cc2ccccc2)N(C)C(=O)[C@H](Cc2ccccc2)N(C)C(=O)[C@H](C(C)C)NC(=O)[C@H](CC(C)C)N(C)C(=O)CN(C)C(=O)[C@H]([C@@H](C)O)NC(=O)[C@H](CC(C)C)N(C)C1=O [pd221] ([dV][NMeF]L[NMeL]T[Sar][NMeL]V[NMeF][NMeF]D-Piperidide; lactam N-11)" recorded_value=1.1

Please look at the following molecule next.
Ask: Return the recorded Papp A→B at 180 min value; entry: CC(C)C[C@H]1C(=O)N(C)CC(=O)N[C@@H](Cc2ccccc2)C(=O)N[C@@H](Cc2ccc(C(F)(F)F)cc2)C(=O)N(C)[C@@H](CC(C)C)C(=O)N(C)[C@@H](CC(C)C)C(=O)N[C@@H]([C@@H](C)O)C(=O)N(C)[C@H](C(=O)N2CCCCC2)CC(=O)N1C [pd150] ([NMeL][Sar]F[Phe(4-CF3)][NMeL][NMeL]T[NMeD]-Piperidide; lactam N-8)
Result: 1.7
